System: chloroquine-susceptible 3D7 P. falciparum strain
Assay overview: In vitro anti-plasmodial assay (HRP2 ELISA), 3D7
Format: cell-based, Plasmodium falciparum
Condition context: Table 3; selectivity index between 184B5 and parasites 3D7
Property measured: SI 3D7 184B5

> print(dat)
                                   compound                              assay.system  reading
1  COc1ccc2c(c1OC)CC1c3c(cc4c(c3-2)OCO4)CCN1C (stereo not shown)  chloroquine-susceptible 3D7 P. falciparum strain    30.41
2  COc1cc2c(cc1OC)[C@@H]1Cc3ccc(OC)c(OC)c3CN1CC2 [Tetrahydropalmatine 7, tetrahydropalmatine]  chloroquine-susceptible 3D7 P. falciparum strain    >0.18
3   COc1cccc2c1C(=O)c1nccc3cc4c(c-2c13)OCO4  chloroquine-susceptible 3D7 P. falciparum strain    0.026

// next item, SI 3D7 184B5 requested
Lookup: Tell me reported SI 3D7 184B5 for COc1ccc2c(c1OC)-c1c3c(cc4c1C(C2)N(C)CC4)OCO3 (stereo not shown) , tested with chloroquine-susceptible 3D7 P. falciparum strain.
Found: 26.07

###

Test system: MCF 10A
Assay overview: SRB cell proliferation assay, MCF10A non-cancer cells
Assay type: cell-based
Condition context: Homo sapiens, read-out: IC50 (μM ± SD) MCF 10A
Provide the reported IC50 of each item.
Give bare numbers, in µM.

These solved cases illustrate the format of a correct answer.
> print(dat)
                                   compound  assay.system  reading
1  CCN(CC)CCCC(C)Nc1ccnc2cc(Cl)ccc12 (stereo not drawn) [Chloroquine, reference compound]       MCF 10A     40.5
2  COc1ccc2c(c1OC)CC1c3c(cc4c(c3-2)OCO4)CCN1C (stereo not drawn) [Crebanine 4, crebanine]       MCF 10A     47.2

// next item, IC50 requested
Lookup: Given COc1cccc2c1C[C@@H]1c3c(cc4c(c3-2)OCO4)CCN1C [Stephanine 3, stephanine] , state its recorded IC50.
Found: 7.19

###

Tested on: chloroquine-susceptible 3D7 P. falciparum strain
Assay overview: In vitro anti-plasmodial assay (HRP2 ELISA), 3D7
Type: cell-based, Plasmodium falciparum
Condition context: Table 3; selectivity index between MCF10A and parasites 3D7
Lab note - cut at 20 for SI 3D7 MCF10A: true (1) if strictly below, false (0) if not.

> print(dat)
                                   molecule      class
1  COc1cccc2c1C[C@@H]1c3c(cc4c(c3-2)OCO4)CCN1C   true (1)
2  COc1ccc2c(c1OC)-c1c3c(cc4c1C(C2)N(C)CC4)OCO3 (stereo not drawn)  false (0)

Lookup: Is SI 3D7 MCF10A of `COc1cccc2c1C(=O)c1nccc3cc4c(c-2c13)OCO4` strictly below 20?
Found: true (1)

Lookup: Would you kindly repeat that for `COc1cccc2c1C(=O)c1c3c-2c2c(cc3cc[n+]1C)OCO2` ?
Found: false (0)

Lookup: Would you kindly repeat that for COc1ccc2c(c1OC)CC1c3c(cc4c(c3-2)OCO4)CCN1C (stereo not drawn) ?
Found: false (0)

###

Provide the reported IC50 of each item.
Tested on: HeLa
Assay overview: SRB cell proliferation assay, HeLa
Format: cell-based, human
Condition context: Homo sapiens, HeLa, 72 h, read-out: IC50 (μM ± SD) HeLa
One number for each entry, in µM.

> print(dat)
                                   molecule  unit.string  reading
1  CCN(CC)CCCC(C)Nc1ccnc2cc(Cl)ccc12 (stereo not drawn) [Chloroquine, reference compound]           µM     29.8
2  COc1ccc2c(c1OC)CC1c3c(cc4c(c3-2)OCO4)CCN1C (stereo not drawn)           µM     48.1

// next item, IC50 requested
Lookup: Given `COc1cccc2c1C[C@@H]1c3c(cc4c(c3-2)OCO4)CCN1C` , state its recorded IC50.
Found: 3.33
